- System: PG-4 cells
- procedure-text: Cytotoxicity in PG-4 cells (XTT, TC50)
- Format: cell-based, feline
- stated-conditions: assay SOW104-11-01
observation-type: CC50

Record request: CC50 value, item C[C@H](Cn1cnc2c(N)ncnc21)OCP(=O)(O)O [Tenofovir, (R)-9-(2-phosphonylmethoxypropyl)adenine]
> 1 µM

###

- System: XMRV collected from 22Rv1 prostate cancer cells
- procedure-text: Anti-XMRV cytoprotection assay in PG-4 cells (XTT)
- Type: cell-based, xenotropic murine retrovirus (XMRV)
- stated-conditions: unidentified retrovirus, 22Rv1, in Mus musculus, read-out: PG-4/XMRV EC50, assay SOW104-11-01: 5×10^4 cells per ml, DMEM 2% FBS
Consider the following compounds; for each one, report its EC50.
Note: unit µM is implicit; provide only the numeric part.

Please provide the recorded EC50 for "Cc1cn([C@H]2C[C@H](N=[N+]=[N-])[C@@H](CO)O2)c(=O)[nH]c1=O" , tested on XMRV collected from 22Rv1 prostate cancer cells.
0.8

XMRV collected from 22Rv1 prostate cancer cells / EC50 / "CCCCCCCCCCCCCCCCOCCCOP(=O)(O)CO[C@H](C)Cn1cnc2c(N)ncnc21" : value?
0.04
